Where these numbers come from: patent EP2801573A1

assayed.system: natural cell surface human CD38 enzyme (Homo sapiens)
Construct: The A549 cells express active CD38 enzyme on the cell surface; endogenous in cells; host or cells: A549 human lung epithelial cells (ATCC CCL 185)
Sequence (P28907 whole entry): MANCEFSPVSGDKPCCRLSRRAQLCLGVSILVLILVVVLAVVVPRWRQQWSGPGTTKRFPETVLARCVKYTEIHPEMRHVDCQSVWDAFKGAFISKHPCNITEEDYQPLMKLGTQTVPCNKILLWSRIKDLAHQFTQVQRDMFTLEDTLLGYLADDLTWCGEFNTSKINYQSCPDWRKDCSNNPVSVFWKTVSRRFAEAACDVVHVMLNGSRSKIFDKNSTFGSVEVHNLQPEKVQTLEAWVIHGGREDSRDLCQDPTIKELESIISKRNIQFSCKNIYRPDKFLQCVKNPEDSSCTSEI
experiment.notes: Cell surface enzyme assay on A549 cells
Assay type: cell-based
run.conditions: A549 human lung epithelial cells, pre-incubated 15 min, ε-NAD 100 µM, 60 min, pH=7.4
Protocol: A549 human lung epithelial cells were used as enzyme source. The A549 cells express active CD38 enzyme on the cell surface. […] Type II-like human lung epithelial cells A 549 (ATCC CCL 185) were grown in RPMI 1640 medium supplemented with 10% fetal calf serum, 2mM 1-glutamine and penicillin/streptomycin 1% in a humidified incubator with an atmosphere of 95% air and 5% CO2 at 37 °C. At about 70-80% confluence, cells were detached with trypsin/EDTA solution to form a cell suspension and counted. […]
The entries below come with measured IC50 values attached.

{"columns": ["compound", "assayed.system", "IC50 / nM"],
 "data": [
  ["O=C(c1cccc(N2C(=O)N/C(=C\\c3ccncc3)C2=O)c1)N1CCOCC1 [Compound 28]", "natural cell surface human CD38 enzyme (Homo sapiens)", 359],
  ["O=C1N/C(=C\\c2ccncc2)C(=O)N1CC(F)(F)F [Compound 62]", "natural cell surface human CD38 enzyme (Homo sapiens)", 604],
  ["O=C1N/C(=C\\c2ccncc2)C(=O)N1CC1(O)CCCC1 [Compound 58]", "natural cell surface human CD38 enzyme (Homo sapiens)", 246],
  ["O=C1N/C(=C\\c2ccncc2)C(=O)N1CC1CCCO1 (stereo not drawn) [Compound 60]", "natural cell surface human CD38 enzyme (Homo sapiens)", 81.8],
  ["CC(C)(O)CN1C(=O)N/C(=C\\c2ccncc2)C1=O [Compound 61]", "natural cell surface human CD38 enzyme (Homo sapiens)", 288],
  ["O=C1N/C(=C\\c2ccncc2)C(=O)N1CC1(O)CCCCC1 [Compound 55]", "natural cell surface human CD38 enzyme (Homo sapiens)", 242],
  ["CCCCc1ccc(N2C(=O)N/C(=C\\c3ccncc3)C2=O)cc1 [Compound 24]", "natural cell surface human CD38 enzyme (Homo sapiens)", 297],
  ["O=C1N/C(=C\\c2ccncc2)C(=O)N1c1ccc(I)cc1 [Compound 33]", "natural cell surface human CD38 enzyme (Homo sapiens)", 272],
  ["O=C1N/C(=C\\c2ccncc2)C(=O)N1C1CC(F)(F)C1 [Compound 53]", "natural cell surface human CD38 enzyme (Homo sapiens)", 249],
  ["O=C1N/C(=C\\c2ccncc2)C(=O)N1CC1(O)CCC1 [Compound 59]", "natural cell surface human CD38 enzyme (Homo sapiens)", 98.5],
  ["O=C1N/C(=C\\c2ccncc2)C(=O)N1CC1CCOCC1 [Compound 56]", "natural cell surface human CD38 enzyme (Homo sapiens)", 137],
  ["O=C1N/C(=C\\c2ccncc2)C(=O)N1c1ccc(Cl)cc1 [Compound 2]", "natural cell surface human CD38 enzyme (Homo sapiens)", 181]
]}

----------
assayed.system: human recombinant CD38 enzyme (Homo sapiens, UniProt P28907)
Construct: purchased R&D Systems H7006
Sequence (P28907 whole entry): as above
experiment.notes: Human recombinant enzyme assay (fluorimetric CD38 enzyme assay, ε-NAD substrate)
Format: biochemical
run.conditions: recombinant CD38 100 ng/ml, ε-NAD 100 µM, pH = 6.0, 37°C, reaction time 30 min; read-out: IC50 (nM) ENAD
Protocol: Enzyme assay on human recombinant CD38 enzyme were performed in order to determine the in vitro potency of the newly synthesized compounds. IC50 values were determined for the test compounds and used to explore the structure-activity relationships (SAR). […]
Criterion: IC50 strictly less than 40 nM. Met: MET. Not met: NOT MET.

{"columns": ["molecule", "class.name"],
 "data": [
  ["O=C(O)Cc1ccc(N2C(=O)N/C(=C\\c3ccncc3)C2=O)cc1", "MET"],
  ["COc1ccc(N2C(=O)N/C(=C\\c3ccncc3)C2=O)cc1", "NOT MET"],
  ["O=C1N/C(=C\\c2ccncc2)C(=O)N1c1ccc(I)cc1", "MET"],
  ["CCOc1ccc(CCN2C(=O)N/C(=C\\c3ccncc3)C2=O)cc1OCC", "NOT MET"],
  ["O=C1N/C(=C\\c2ccncc2)C(=O)N1CC1CCCO1 (centres unmarked)", "MET"],
  ["CCOC(=O)CN1C(=O)N/C(=C\\c2ccncc2)C1=O", "NOT MET"],
  ["O=C(NCCN1CCOCC1)c1cccc(N2C(=O)N/C(=C\\c3ccncc3)C2=O)c1", "NOT MET"],
  ["O=C1N/C(=C\\c2ccncc2)C(=O)N1c1ccc(Br)cc1", "MET"],
  ["O=C1N/C(=C\\c2ccncc2)C(=O)N1c1cccnc1", "NOT MET"],
  ["O=C1N/C(=C\\c2ccncc2)C(=O)N1CC1(O)CCCC1", "MET"],
  ["O=C1N/C(=C\\c2ccncc2)C(=O)N1c1ccc(Cl)cc1", "MET"],
  ["O=C1N/C(=C\\c2ccncc2)C(=O)N1c1ccc(F)c(F)c1", "MET"],
  ["Cc1ccc(N2C(=O)N/C(=C\\c3ccncc3)C2=O)cc1", "MET"],
  ["O=C1N/C(=C\\c2ccncc2)C(=O)N1C12CC3CC(CC(C3)C1)C2", "NOT MET"],
  ["O=C1N/C(=C\\c2ccncc2)C(=O)N1CC1CCOCC1", "MET"],
  ["CS(=O)(=O)c1ccc(N2C(=O)N/C(=C\\c3ccncc3)C2=O)cc1", "MET"],
  ["Cc1cccc(N2C(=O)N/C(=C\\c3ccncc3)C2=O)c1", "NOT MET"],
  ["O=C1N/C(=C\\c2ccncc2)C(=O)N1CC1(O)CCC1", "MET"],
  ["O=C(NC1CC1)c1ccc(N2C(=O)N/C(=C\\c3ccncc3)C2=O)cc1", "NOT MET"],
  ["O=C1N/C(=C\\c2ccncc2)C(=O)N1c1ccccc1", "MET"],
  ["C[S+]([O-])c1ccc(N2C(=O)N/C(=C\\c3ccncc3)C2=O)cc1 (centres unmarked)", "NOT MET"],
  ["CCc1ccc(N2C(=O)N/C(=C\\c3ccncc3)C2=O)cc1", "NOT MET"],
  ["CCOC(=O)C1CCN(C(=O)c2ccc(N3C(=O)N/C(=C\\c4ccncc4)C3=O)cc2)CC1", "MET"],
  ["O=C1N/C(=C\\c2ccncc2)C(=O)N1c1cccc(C(F)(F)F)c1", "NOT MET"],
  ["CCCN1C(=O)N/C(=C\\c2ccncc2)C1=O", "NOT MET"],
  ["O=C1N/C(=C\\c2ccncc2)C(=O)N1c1ccc(F)cc1", "MET"],
  ["CC(C)(C)c1ccc(N2C(=O)N/C(=C\\c3ccncc3)C2=O)cc1", "NOT MET"],
  ["CCCCc1ccc(N2C(=O)N/C(=C\\c3ccncc3)C2=O)cc1", "NOT MET"],
  ["O=C1N/C(=C\\c2ccncc2)C(=O)N1c1ccc(OC(F)(F)F)cc1", "MET"],
  ["O=C(NC1CCCCC1)c1ccc(N2C(=O)N/C(=C\\c3ccncc3)C2=O)cc1", "NOT MET"],
  ["N#Cc1ccc(N2C(=O)N/C(=C\\c3ccncc3)C2=O)cc1", "MET"],
  ["O=C1N/C(=C\\c2ccncc2)C(=O)N1CC1(CO)CCC1", "MET"],
  ["O=C1N/C(=C\\c2ccncc2)C(=O)N1c1cccc(Cl)c1", "NOT MET"],
  ["O=C1N/C(=C\\c2ccncc2)C(=O)N1CCc1ccccc1", "NOT MET"],
  ["CCC(C)N1C(=O)N/C(=C\\c2ccncc2)C1=O (centres unmarked)", "NOT MET"],
  ["CC(C)(O)CN1C(=O)N/C(=C\\c2ccncc2)C1=O", "MET"],
  ["O=C(c1cccc(N2C(=O)N/C(=C\\c3ccncc3)C2=O)c1)N1CCOCC1", "NOT MET"]
]}
